Each record here notes measured CC50 at 72 h.
test.details: Cytotoxic evaluation on HepG2 cell line (MTT, 72 h)
Type: cell-based, human
reported.conditions: HepG2 cells (hepatocarcinoma cell line, ATCC HB-8065); human hepatoma cell line HepG2, MTT, 72 h, mean ± SD of three independent experiments
State the answer as a number, implicitly in µM.

Use the examples below as a reference point.
molecule	observed
Cc1ccc(-c2cc3nc(NC(C)(C)C)nc(N)c3s2)cc1 [Compound 10a]	12.1
Cc1ccc(-c2cc3nc(NC(C)(C)C)nc(NCCCCO)c3s2)cc1 [Compound 10f]	2.9
COCCNc1nc(NC(C)(C)C)nc2cc(-c3ccc(C)cc3)sc12 [Compound 10g]	3.7
CCCNc1nc(NC(C)(C)C)nc2cc(-c3ccc(C)cc3)sc12 [Compound 10d]	3.7
Cc1ccc(-c2cc3nc(NC(C)(C)C)nc(I)c3s2)cc1 [Compound 6]	29
Cc1ccc(-c2cc3nc(NC(C)(C)C)nc(Cl)c3s2)cc1 [Compound 5]	16.4

Here's the next entry for you.
Note down CC50 at 72 h recorded for CNc1nc(NC(C)(C)C)nc2cc(-c3ccc(C)cc3)sc12 [Compound 10c] 3.7

Reference source for all entries: paper PMC9323797
